Tested on: HCI-025 (organoid from a breast cancer xenograft)
Experiment: CTG-3D luminescence at 96 h relative to day-0 seeding control (ratio to day 0); higher = more growth / less cytotoxicity; PDxO 3D drug screen (set 2), 96 h, CTG-3D normalised to day-0 seeding control.
Details: 0.005 µM; days in culture: 189
observation_type: CTG-3D luminescence at 96 h
Give bare numbers.

1. CS(=O)(=O)CCNCc1ccc(-c2ccc3ncnc(Nc4ccc(OCc5cccc(F)c5)c(Cl)c4)c3c2)o1    1.58
2. CO[C@H]1C[C@@H]2CC[C@@H](C)[C@@](O)(O2)C(=O)C(=O)N2CCCC[C@H]2C(=O)O[C@H]([C@H](C)C[C@@H]2CC[C@@H](O)[C@H](OC)C2)CC(=O)[C@H](C)/C=C(\C)[C@@H](O)[C@@H](OC)C(=O)[C@H](C)C[C@H](C)/C=C/C=C/C=C/1C    1.11
3. COc1cccc2c1C(=O)c1c(O)c3c(c(O)c1C2=O)C[C@@](O)(C(=O)CO)C[C@@H]3O[C@H]1C[C@H](N)[C@@H](O)[C@H](C)O1 [epirubicin]    1.58

Now let's try a different one.
Prompt: Give measured CTG-3D luminescence at 96 h for `C[C@@H](Nc1cc(F)cc(F)c1)c1cc(C(=O)N(C)C)cc2c(=O)cc(N3CCOCC3)oc12` (HCI-025).
Completion: 1.89

Measured values drawn from the supplement of paper PMC8882468 for this set.
